test-method-notes: NCI Yeast Anticancer Drug Screen. Data for the sgs1 mgt1 strain (AID 161);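 further: 0% = growth of cultures given vehicle only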
assay-setup: S. cerevisiae sgs1 mgt1 strain, at 50.0 µM, stronger effect = higher value
This is part of a sample that, as a whole, favours compounds with a hit. Of some 79,000 tested, about 15% had one in any assay.
measure-name: growth inhibition (%)
The reply should be a number in %, with the unit left off.

Look over these answered cases.
compound	growth inhibition, %
CC(=O)OC1C(O[C@H]2CC[C@]34O[C@]35CC[C@]3(C)C(C6(C)CC[C@@H](C(C)(C)O)O6)[C@@H](O)CC3(C)[C@@H]5CC(OC3OC(CO)C(O)C(O)C3O)C4C2(C)C)OCC(O)C1O (stereo not given in full)	2.7
O=C1NC(=O)c2c1c1cnn(-c3ccccc3)c1n1cccc21	25.2
CC1OCOC(CO)C(O)C1O (stereo not given)	17.5
CCCCNC(C)=O	-18.5

Problem: For the compound shown here, Cc1ccc2c(c1)C(c1cccc3ccccc13)OC2=O (stereo not given) , give the reported growth inhibition.
Result: 40.2

* * *

test-method-notes: NCI Yeast Anticancer Drug Screen. Data for the sgs1 mgt1 strain (AID 161);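 further: 0% = growth of cultures given vehicle only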
assay-setup: S. cerevisiae sgs1 mgt1 strain, at 50.0 µM, stronger effect = higher value
Experimental: Growth inhibition of yeast strains with defined genetic alterations is measured as a screen for potential anti-cancer activity. Selected strains with alterations in DNA damage repair or cell cycle control were exposed to compounds and growth inhibition was measured relative to vehicle treated controls. The strain used in this assay is sgs1 mgt1
About 79,000 compounds went through this panel and 15% of them were active in at least one assay; those are over-represented in the sample as a whole.
Recorded growth inhibition for the following molecules
API: value field is a number in %; no unit string.

Here's what some known entries look like.
molecule	growth inhibition [%]
CN(C)c1ccc(CC2Cc3ccccc3C2O)cc1 (configuration not stated)	10.2
CCN(CC)CCOC(=O)c1ccc(Cl)c(Cl)c1	19.9
O=c1ccc2c(O)cc(O)cc2o1	-13.7
CC(=O)NNC(=O)NCCCCCCNC(=O)NNC(C)=O	25.4

Problem: Item CN(CC(=O)NC(=O)c1ccccc1)Cc1ccccc1 has what recorded growth inhibition?
Result: 3.95

Problem: Do the same for OC(CNC1CC2CCC1C2)COc1cccc2ccccc12 (configuration not stated) please
Result: 76.5

Problem: Likewise for N#C/C(=C\c1ccccc1)C(NO)Nc1ccccc1 (configuration not stated) ?
Result: -1.4

* * *

test-method-notes: NCI Yeast Anticancer Drug Screen. Data for the bub3 strain (AID 167)
assay-setup: S. cerevisiae bub3 mutant strain, at 50.0 µM, stronger effect = higher value
This is part of a sample that, as a whole, favours compounds with a hit. Of some 79,000 tested, about 15% had one in any assay.
measure-name: growth inhibition (%)
Report as a plain number; the unit % is understood.

compound	measure-name	unit-label	measured-number
CCCOC(=O)C(CC)CC(C)C (stereo not given)	growth inhibition	%	9.35
COC1(C2COc3cc(OCc4ccccc4)ccc3C2=O)C=C2OCOC2=CC1=O (stereo not given)	growth inhibition	%	9.45
CC12CCC(O)CC1=CCC1C2CCC2(C)C1CC1=CC(C#N)C(=O)NC12O (stereo not given)	growth inhibition	%	-0.3
COc1ccc2c(c1OC)C(=O)OC2(O)C1=NCCc2cc3c(cc21)OCO3 (stereo not given)	growth inhibition	%	4.05
[CH3][Ge]([Cl])([c]1ccccc1)[c]1cccc2ccccc12 (stereo not given)	growth inhibition	%	-0.15

Problem: // growth inhibition lookup, key: Cc1ccc(CCCC(=O)O)c2ccc3ccccc3c12
Result: 4.3

Problem: Now give it for COc1ccc2c(c1)C(N)CC2=O (stereo not given) too.
Result: 1.75

Problem: Again, but for COC(=O)C(CSSCC(C(=O)NC(Cc1ccccc1)C(=O)NCC(=O)OC(C)(C)C)N1C(=O)CCC1=O)NC(=O)OCc1ccccc1 (stereo not given)
Result: -51.4

Problem: Now the compound COc1ccc(-c2cc(C(=O)Nc3cc(Cl)cc(Cl)c3)c3ccccc3n2)cc1
Result: -17.6

Problem: How about this compound: CCOC1CCC(C(=O)CC)C(C#N)(C#N)C1(C#N)C#N (stereo not given)
Result: 11.8

Problem: Would you kindly repeat that for CC1=CN(c2ccccc2)S2=C1c1sc3c(c1N2c1ccc(Br)cc1)CCCC3 (stereo not given) ?
Result: 3.15

Problem: Cool, now O=C1CCCCC/C1=C\O
Result: -23.9

Problem: What do we get for COc1cc2ccc3c4c(OC)cc5c(c4c[n+](C)c3c2cc1OC)OCO5 ?
Result: 90

* * *

Entries annotated with measured growth inhibition
test-method-notes: NCI Yeast Anticancer Drug Screen. Data for the mlh1 rad18 strain (AID 175)
assay-setup: S. cerevisiae mlh1 rad18 strain growth inhibition; at 50.0 µM; stronger effect = higher value
About 79,000 compounds went through this panel and 15% of them were active in at least one assay; those are over-represented in the sample as a whole. Where a SMILES comes first, the peptide text is derived from it. The star is where a group is joined. Cbz = O=C(OCc1ccccc1)*
Please give a number only; it is taken to be in %.

Previously resolved entries follow.
compound	growth inhibition / %
O=NNc1ccc(SSc2ccc(NN=O)cc2)cc1	31.1
BrCCOc1ccccc1	-25.5
O=C(NC(=O)c1ccccc1O)c1ccccc1	-11.2

Problem: Param item = Cc1cc(C)c(S(=O)(=O)c2cccs2)c(C)c1 ; retrieve measured growth inhibition.
Result: -2.8

Problem: Follow-up item: Cc1c(-c2ccccc2)c(=O)oc2cc(O)ccc12
Result: 11.2

Problem: Note, next up: Cc1cc(N2CCCCC2)nc(N2CCCCC2)c1C#N
Result: 13.8

Problem: And COc1ccc(C)cc1NC(=S)NC(=O)c1cccc([N+](=O)[O-])c1 ?
Result: 0.3

Problem: // repeat for C=C1C(=O)C[C@@H]2CC(C)(C)C[C@]12CC(=O)O and report
Result: -17.1

Problem: Param item: C#CCSC(=N)N
Result: 5.75

Problem: What about CN(C=C(c1ccccc1)c1ccccc1)c1ccccc1 ?
Result: -32.6

Problem: Next compound up: [O-][n+]1cc[n+]([O-])c2cc(O)ccc21
Result: 10.7

Problem: Record: COc1cc2c(cc1OC)C1CCN3CCCC3N1CC2 (stereo not given)
Result: 3.3

Problem: # repeat for NC(=S)N1CCCC1
Result: 19.3

Problem: What do we get for O=S(/N=C/c1ccccc1)c1ccc(Cl)cc1 (stereo not given) ?
Result: 13

Problem: Note, next up: CC1(C)Cc2oc(=Nc3ccccc3)n(-c3ccccc3)c(=O)c2C1
Result: 0.15

Problem: Entry CCCCC(C)(CCN)CCCC please
Result: 0.1

Problem: Next entry: CCOC(=O)CCC(NC(=O)OCc1ccccc1)C(=O)NC(CCC(=O)OCC)C(=O)OCC (stereo not given) (Cbz-Glu(OEt)-Glu(OEt)-OEt; configuration not given here)
Result: -25.8

Problem: Same read-out for c1cnc2c3ccncc3c3nc(-c4ccncc4)[nH]c3c2c1 ?
Result: -17.2

Problem: Another compound to check: CC(=O)CC(=O)CCCCCCCCCCCC(=O)CC(C)=O
Result: 10.4

Problem: Same question, CCOC(=O)[C@H]1Nc2ccc(Cl)cc2[C@H]2c3ccccc3O[C@H]21 this time
Result: -19.4

Problem: Proceed to NC(=S)N/N=C1\C(=O)N(CCc2ccccc2)C(=O)C1C(=O)NCCc1ccccc1 (stereo not given)
Result: -15.2

Problem: Another compound to check: O=S(=O)(O)c1ccc(O)c2ncccc12
Result: 25.9

Problem: Same read-out for CC(C)CC(N)C(=O)NC(Cc1cc2ccccc2[nH]1)C(=O)O (stereo not given) ?
Result: -0.4

Problem: Also Cc1ccc(N=NN(C)C)cc1NC(=O)NCC(=O)OC(C)(C)C , if possible.
Result: 7.8

Problem: Proceed to O=C1COC(C(O)(c2ccccc2)c2ccccc2)C(=O)N1 (stereo not given)
Result: 6.25

* * *

Quick reference for growth inhibition among some compounds
test-method-notes: NCI Yeast Anticancer Drug Screen. Data for the mlh1 rad18 strain (AID 175)
assay-setup: S. cerevisiae mlh1 rad18 strain growth inhibition; at 50.0 µM; stronger effect = higher value
The panel holds about 79,000 compounds, 15% with a hit somewhere; the sample as a whole holds those more often.
# output: bare number, implied unit %

compound	growth inhibition (%)
COc1ccc(-c2cc3cc(OC)c(OC)cc3c[n+]2C)cc1OC	-0.55
O=C(CBr)OCCC1CCCCC1	32.5
CN(C)c1ccc(/C=C/C(=O)/C=C/c2ccc(N(C)C)cc2)cc1	-8.9
CCCCCC(=O)OC[n+]1ccc2c(C)c3[nH]c4ccc(OC)cc4c3c(C)c2c1	91.5
CC(C)CCCC(C)C1CCC2C3CCC4CC(=O)CCCC4(C)C3CCC12C (stereo unspecified)	32.5

Problem: Reported growth inhibition for CC(=O)O[C@H]1CC[C@@]2(C)C(=CC[C@H]3[C@@H]4CC[C@H](c5cc(C(F)(F)F)n(C(C)=O)n5)[C@@]4(C)CC[C@@H]32)C1 : what is it?
Result: 12.4

Problem: How about this compound: CCO/C(C)=C(/C(C)=O)C(=O)NC1CCCCC1
Result: -11.2

Problem: For Cc1ccc2cccc(-c3cccc4ccccc34)c2n1 then?
Result: 28.8

Problem: Now try Nc1ccc(Cn2cnc3c(=O)[nH]cnc32)cc1 .
Result: -5.4

Problem: Then Cc1cc2c(=O)[nH]c(=S)[nH]c2cn1 ?
Result: -3.6

Problem: Could you do the same for CCC1(O)CC2CN(CCc3c([nH]c4ccccc34)C(C(=O)OC)(c3cc4c(cc3OC)N(C)C3C(O)(C(=O)NCCSSCCNC(=O)C5(O)C(O)C6(CC)C=CCN7CCC8(c9cc(C%10(C(=O)OC)CC%11CN(CCc%12c%10[nH]c%10ccccc%12%10)CC(O)(CC)C%11)c(OC)cc9N(C)C58)C76)C(O)C5(CC)C=CCN6CCC43C65)C2)C1 (stereo unspecified) , please?
Result: 37.6
